assay: GSK_TCMDC: Inhibition Frequency Index (IFI). The number of non-kinase HTS assays where a compound showed > 50 % inhibition, expressed as a percentage of the number of such assays in which the compound was tested; assay type: functional
In all, about 13,000 compounds were measured (“IFI”: median about 4, highest 2% from about 17 on). This is one part of a sample in which the highest values are shown more often than they occur.
Measured Quantity: IFI (%)
API: value field is a number in %; no unit string.

[ask] Requested read-out: IFI. Entry: O=[N+]([O-])c1cccc(C(Nc2ccccn2)c2ccc3cccnc3c2O)c1 (stereo not drawn)
[reply] 8.74

[ask] Can you handle "FC(F)(F)c1ccc2[nH]c(-c3cccc(-c4cccc(CN5CCN(c6ccncc6)CC5)c4)c3)nc2c1" next?
[reply] 11.5

[ask] Can you handle COc1ccc(-c2csc(C(=O)NC3CCC(N4CCC(c5ccccc5C)CC4)CC3)c2)cc1 (stereo not drawn) next?
[reply] 14

[ask] Can you handle "COc1ccc(N2CCN(CCCCNC(=O)c3ccc(NC(=O)c4cc(C(F)(F)F)cc(C(F)(F)F)c4)cc3)CC2)cc1OC" next?
[reply] 3.51

[ask] Can you handle "CCCCc1ccc2ncc(C(=O)OCC)c(O)c2c1" next?
[reply] 0.78

[ask] Can you handle Cc1ccc(/C=C/C(=O)NC2CCC(N3CCC(c4ccccc4C)CC3)CC2)cc1C (stereo not drawn) next?
[reply] 15

[ask] Can you handle "Cc1noc(C)c1-c1ccc2c(Nc3ccc([N+](=O)[O-])cc3)c(C(N)=O)cnc2c1" next?
[reply] 1.63

[ask] Can you handle Cn1c(N=C2NC3(c4ccccn4)NC(=Nc4nc5ccccc5n4C)NC3(c3ccccn3)N2)nc2ccccc21 (stereo not drawn) next?
[reply] 3.6

[ask] Can you handle CCc1c(C(=O)NC2CCC(N3CCC(c4ccccc4C)CC3)CC2)[nH]c2ccc(Br)cc12 (stereo not drawn) next?
[reply] 15.8

[ask] Can you handle "CC(C)N1CCC(N(Cc2ccc(-c3ccc(C(F)(F)F)cc3)cc2)C(=O)Cn2c(CCc3cccc(F)c3F)nc(=O)c3cccnc32)CC1" next?
[reply] 16.1

[ask] Can you handle "COc1cc2s/c(=N\C(=O)c3cccc([N+](=O)[O-])c3)n(C)c2cc1OC" next?
[reply] 1.72

[ask] Can you handle "CC(C)c1ccc(C=CC(=O)N2CCC(CCN3CCC(c4c[nH]c5ccccc45)CC3)CC2)cc1" next?
[reply] 7.19

[ask] Can you handle "N#Cc1cc(C(=O)c2cc(Cl)ccc2O)cn(-c2cccc(C(F)(F)F)c2)c1=O" next?
[reply] 7.44

[ask] Can you handle "COc1ccc2ncc(F)c(CCN3CC[C@@H](CNCc4nc5c(cc4C)SCC(=O)N5)C3)c2n1" next?
[reply] 5.83

[ask] Can you handle "COc1cc2nc(SCCCC#N)n(C3CCCCCC3)c(=N)c2cc1OC" next?
[reply] 3.6

[ask] Can you handle "CC(C)(C)C(=O)Nc1ccc(N2CCN(C(c3ccccc3)c3ccccc3)CC2)c(Cl)c1" next?
[reply] 3.51

[ask] Can you handle "CCc1ccc(-n2cc(C(=O)c3cc(Br)ccc3O)cc(C#N)c2=O)cc1" next?
[reply] 15.9

[ask] Can you handle O=S(=O)(Nc1cccc(CCN2CCCCC2CCN2CCCC2)c1)c1ccc(Oc2ccccc2)cc1 (stereo not drawn) next?
[reply] 17.5

[ask] Can you handle "N#Cc1cc(C(=O)c2cc(Cl)ccc2O)cn(-c2cc(Cl)cc(Cl)c2)c1=O" next?
[reply] 17.4

[ask] Can you handle "Cc1cc(=NN=CC=Cc2ccccc2)c2cc(F)ccc2[nH]1" next?
[reply] 0.75

[ask] Can you handle Cc1ccc(C(C(=O)Nc2ccc(N3CCNCC3)c(Cl)c2)c2ccccc2)cc1 (stereo not drawn) next?
[reply] 18.6

[ask] Can you handle "COc1ccc(-n2cc(C(=O)c3cc(Br)ccc3O)cc(C#N)c2=O)cc1Cl" next?
[reply] 14.8

[ask] Can you handle "CCN(CCCN1CCCCC1)c1cc(C)nc(Nc2ccc(Cl)cc2C)n1" next?
[reply] 5
